Source listed as paper PMC11694514.

Target: UniProt:Q16690
Sequence (Q16690 178-319 limits assumed): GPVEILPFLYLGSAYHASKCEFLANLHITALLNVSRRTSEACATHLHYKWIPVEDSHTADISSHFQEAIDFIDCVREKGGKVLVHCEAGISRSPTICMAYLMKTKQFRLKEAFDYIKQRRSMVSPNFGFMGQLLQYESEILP
Experiment: Steady state inhibition of pNPP hydrolysis by tripeptides
Format: biochemical
Set-up: The Dusp5 phosphatase domain gene, both wild type (WT; DUSP5pdWT; used for kinetic studies); inferred from the Nickel NTA purification), with additional N-terminal amino acids (N); made in house
Settings: Ki, peptide as inhibitor of pNPP hydrolysis; global competitive model, Michaelis-Menten fit (Eq. 2)
Where a SMILES comes first, the peptide text is derived from it. [ ]: non-standard residue; d: D form. pY = N[C@@H](Cc1ccc(OP(=O)(O)O)cc1)C(=O)O; pT = C[C@@H](OP(=O)(O)O)[C@H](N)C(=O)O
PARAMETER MEASURED: pKi
Note on units: pKi is unitless, being -log10 of a concentration expressed in mol/L.

* CC(=O)N[C@H](C(=O)N[C@@H](CCC(=O)O)C(=O)N[C@@H](Cc1ccc(OP(=O)(O)O)cc1)C(N)=O)[C@@H](C)O [T-E-pY] (Ac-Thr-Glu-[pY]-NH2) | 2.31

In the following, a different molecule is considered.
Reported pKi ( CC(=O)N[C@H](C(=O)N[C@@H](CCC(=O)O)C(=O)N[C@@H](Cc1ccc(OP(=O)(O)O)cc1)C(N)=O)[C@@H](C)OP(=O)(O)O [pT-E-pY, Ac-pThr-Glu-pTyr-NH2] (Ac-[pT]-Glu-[pY]-NH2) ) = 2.78
